Data provenance: the supplement of paper PMC8975748

System: Saccharomyces cerevisiae BY4741 SeMeCo community
assay-summary: z-score of subpopulation abundance vs DMSO median, subpopulation auxotrophic for LM; higher = larger share of this subpopulation than in DMSO controls
run-conditions: 10 µM; 24 h; SM minimal medium; subpopulation (auxotrophy): LM
readout: z-score of subpopulation abundance
Output spec: single numeric token, no unit.

Here is how some compounds turned out for z-score of subpopulation abundance.
compound	assay-system	z-score of subpopulation abundance
O=C(CCCN1CCN(c2ccccn2)CC1)c1ccc(F)cc1	Saccharomyces cerevisiae BY4741 SeMeCo community	0.61
CC1(C)[C@H](C(=O)O)N2C(=O)C[C@H]2S1(=O)=O [Sulbactam]	Saccharomyces cerevisiae BY4741 SeMeCo community	1.07
Nc1nc(N)c2nc(-c3ccccc3)c(N)nc2n1	Saccharomyces cerevisiae BY4741 SeMeCo community	5.63

Input: Provide only the value of recorded z-score of subpopulation abundance for O=C(O)Cc1ccccc1Nc1c(Cl)cccc1Cl [Diclofenac acid]
Output: 0

Input: Using the record for C[C@]12CC[C@@H]3c4ccc(O)cc4C[C@@H](CCCCCCCCC[S+]([O-])CCCC(F)(F)C(F)(F)F)[C@H]3[C@@H]1CC[C@@H]2O (stereo partly drawn) , state its measured z-score of subpopulation abundance.
Output: 1.39

Input: Give a short answer stating reported z-score of subpopulation abundance for O=C(O)c1cc(O)c2c(c1)[C@H]([C@H]1c3cc(C(=O)O)cc(O)c3C(=O)c3c(O[C@@H]4O[C@H](CO)[C@@H](O)[C@H](O)[C@H]4O)cccc31)c1cccc(O[C@@H]3O[C@H](CO)[C@@H](O)[C@H](O)[C@H]3O)c1C2=O [Sennoside A] .
Output: -0.8

Input: Name the recorded z-score of subpopulation abundance of the compound listed here: O=C(CCCN1CCC(O)(c2ccc(Cl)cc2)CC1)c1ccc(F)cc1
Output: 0.48

Input: Identify the reported z-score of subpopulation abundance for the following entry. CCS(=O)(=O)CCn1c([N+](=O)[O-])cnc1C
Output: 0.29

====

The entries below come with measured z-score of subpopulation abundance values attached.
System: Saccharomyces cerevisiae BY4741 SeMeCo community
assay-summary: z-score of subpopulation abundance vs DMSO median, subpopulation auxotrophic for HL; higher = larger share of this subpopulation than in DMSO controls
run-conditions: 10 µM; 24 h; SM minimal medium; subpopulation (auxotrophy): HL
Counter-ions that a name gives are not always drawn.
API doc: respond with a numeric literal and nothing else, no unit.

Below are worked cases with known answers.
molecule	assay-system	z-score of subpopulation abundance
C[C@@H](O)[C@H]1C(=O)N2C(C(=O)O)=C([C@H]3CCCO3)S[C@H]12 [Faropenem Sodium]	Saccharomyces cerevisiae BY4741 SeMeCo community	0
CN(Cc1ccc(C(C)(C)C)cc1)Cc1cccc2ccccc12 [Butenafine HCl]	Saccharomyces cerevisiae BY4741 SeMeCo community	-0.63
C=C1CCN([C@H](C)[C@](O)(Cn2cncn2)c2ccc(F)cc2F)CC1	Saccharomyces cerevisiae BY4741 SeMeCo community	11.6
Cc1cc(-n2c(=O)[nH]c(=O)n(C)c2=O)ccc1Oc1ccc(SC(F)(F)F)cc1	Saccharomyces cerevisiae BY4741 SeMeCo community	0.24
COc1cccc2c1C(=O)c1c(O)c3c(c(O)c1C2=O)C[C@@](O)(C(=O)CO)C[C@@H]3O[C@H]1C[C@H](N)[C@H](O[C@@H]2CCCCO2)[C@H](C)O1	Saccharomyces cerevisiae BY4741 SeMeCo community	0.37
COc1ncnc(NS(=O)(=O)c2ccc(N)cc2)c1OC	Saccharomyces cerevisiae BY4741 SeMeCo community	0.34
Nc1ccc(S(=O)(=O)Nc2ccnn2-c2ccccc2)cc1	Saccharomyces cerevisiae BY4741 SeMeCo community	-0.02
CN[C@H]1CC[C@@H](c2ccc(Cl)c(Cl)c2)c2ccccc21 [Sertraline HCl]	Saccharomyces cerevisiae BY4741 SeMeCo community	-0.5

Input: Query z-score of subpopulation abundance for O=C1C(N(CO)C(=O)NCO)N(CO)C(=O)N1CO (stereo not drawn)
Output: -0.07

Input: For the molecule CCCN[C@H]1CCc2nc(N)sc2C1 [Pramipexole dihydrochloride] , give its measured z-score of subpopulation abundance value.
Output: 0.19

====

Tested on: Saccharomyces cerevisiae BY4741 SeMeCo community
assay-summary: z-score of subpopulation abundance vs DMSO median, subpopulation auxotrophic for LU; higher = larger share of this subpopulation than in DMSO controls
run-conditions: 10 µM; 24 h; SM minimal medium; subpopulation (auxotrophy): LU
Structures can show the parent of a compound that is named as a salt.
Classify on z-score of subpopulation abundance using class A = under -0.7, class B = from -0.7 up to 0.4, class C = 0.4 and over

See these solved cases before continuing.
compound	class-assignment
C[C@@H]1[C@H](O)[C@@H](C)/C=C/C=C/C=C/C=C/C=C/C=C/C=C/[C@H](O[C@@H]2O[C@H](C)[C@@H](O)[C@H](N)[C@@H]2O)C[C@@H]2O[C@](O)(C[C@@H](O)C[C@@H](O)[C@H](O)CC[C@@H](O)C[C@@H](O)CC(=O)O[C@H]1C)C[C@H](O)[C@H]2C(=O)O [Amphotericin B]	class C
O=C(c1ccccc1)c1ccc2n1CCC2C(=O)O (configuration not stated) [Ketorolac tromethamine salt]	class A
CC1=C(C(=O)OCCN(Cc2ccccc2)c2ccccc2)C(c2cccc([N+](=O)[O-])c2)C(P2(=O)OCC(C)(C)CO2)=C(C)N1 (configuration not stated) [Efonidipine]	class C
CC[C@@H]1/C=C(\C)C[C@H](C)C[C@H](OC)[C@H]2O[C@@](O)(C(=O)C(=O)N3CCCC[C@H]3C(=O)O[C@H](/C(C)=C/[C@@H]3CC[C@@H](O)[C@H](OC)C3)[C@H](C)[C@@H](O)CC1=O)[C@H](C)C[C@@H]2OC [Ascomycin (FK520)]	class B
O=C1c2cccc3c2[C@H](CCC3)CN1[C@@H]1CN2CCC1CC2 [Palonosetron HCl]	class B
CC[C@H]1OC(=O)[C@H](C)[C@@H](O[C@H]2C[C@@](C)(OC)[C@@H](O)[C@H](C)O2)[C@H](C)[C@@H](O[C@@H]2O[C@H](C)C[C@H](N(C)C)[C@H]2O)[C@](C)(O)C[C@@H](C)C(=O)[C@H](C)[C@@H](O)[C@]1(C)O [Erythromycin thiocyanate]	class B
CCC(=O)Oc1ccc2c(c1)CCC1C2CCC2(C)C(OC(=O)CC)CCC12 (stereo not drawn) [Estradiol dipropionate(17-Beta-Estradiol-3,17-Dipropionate)]	class B
N=C(N)NC(=N)N1CCOCC1 [Moroxydine HCl]	class B
O=C1OCCN1/N=C/c1ccc([N+](=O)[O-])o1 [Furazolidone]	class A

Pending compound:
Input: Which category does the recorded z-score of subpopulation abundance put CC/C=C(\C(=O)N[C@@H]1C(=O)N2C(C(=O)OCOC(=O)C(C)(C)C)=C(COC(N)=O)CS[C@H]12)c1csc(N)n1 [Cefcapene Pivoxil Hydrochloride] in?
Output: class C

====

Tested on: Saccharomyces cerevisiae BY4741 SeMeCo community
assay-summary: z-score of subpopulation abundance vs DMSO median, subpopulation auxotrophic for HLUM; higher = larger share of this subpopulation than in DMSO controls
run-conditions: 10 µM; 24 h; SM minimal medium; subpopulation (auxotrophy): HLUM
Counter-ions that a name gives are not always drawn.
Quick rule: z-score of subpopulation abundance of at least -0.03 means Satisfied, below that means Not satisfied.

Observe how each entry below is paired with its result.
molecule	class-assignment
C[N+](C)(C)CCO.[Cl-] [Choline Chloride]	Not satisfied
CC(=O)OC1CC2(C)C(CC(O)C3C4(C)CCC(O)C(C)C4CCC32C)C1=C(CCC=C(C)C)C(=O)O (stereo not drawn) [Fusidine]	Satisfied
Cc1cc(-c2ccc(/N=N/c3ccc4c(S(=O)(=O)O)cc(S(=O)(=O)O)c(N)c4c3O)c(C)c2)ccc1/N=N/c1ccc2c(S(=O)(=O)O)cc(S(=O)(=O)O)c(N)c2c1O [Evans Blue]	Not satisfied
CN(C)CCCN1c2ccccc2Sc2ccc(Cl)cc21 [Chlorpromazine HCl]	Satisfied
CC[N+](CC)(CC)CC [Tetraethylammonium bromide]	Satisfied

Input: Does CCCCCNC(=N)N/N=C/c1c[nH]c2ccc(OC)cc12 [Tegaserod Maleate] have a reported z-score of subpopulation abundance of at least -0.03?
Output: Satisfied

Input: Is it the case that O=C(O[C@@H]1C[C@@H]2C[C@H]3C[C@H](C1)N2CC3=O)c1c[nH]c2ccccc12 [Dolasetron Mesylate] has z-score of subpopulation abundance reaching or exceeding -0.03?
Output: Not satisfied

====

# z-score of subpopulation abundance values compiled below
Test system: Saccharomyces cerevisiae BY4741 SeMeCo community
assay-summary: z-score of subpopulation abundance vs DMSO median, subpopulation auxotrophic for LM; higher = larger share of this subpopulation than in DMSO controls
run-conditions: 10 µM; 24 h; SM minimal medium; subpopulation (auxotrophy): LM
Where a name gives a salt, the structure may show the parent alone.
Please reply with the number alone, leaving off any unit.

The following compounds have reported results that may help.
compound	z-score of subpopulation abundance
CCN(CC)CC#CCOC(=O)C(O)(c1ccccc1)C1CCCCC1 (stereo not given) [Oxybutynin]	-0.42
CC(C)COc1ccc(CNC(=O)N(Cc2ccc(F)cc2)C2CCN(C)CC2)cc1	-0.48
Cc1onc(-c2ccccc2)c1-c1ccc(S(N)(=O)=O)cc1	0.09

Input: Please report the measured z-score of subpopulation abundance for CC(C(=O)O)c1ccc2c(c1)[nH]c1ccc(Cl)cc12 (stereo not given)
Output: -1.27

Input: Tell me its z-score of subpopulation abundance given CC(C)(C)C(=O)OCOC(=O)[C@@H]1N2C(=O)[C@@H](/N=C/N3CCCCCC3)[C@H]2SC1(C)C [Pivmecillinam hydrochloride] as the entry.
Output: -0.18

Input: Recall and state the measured z-score of subpopulation abundance for Nc1ccc(S(=O)(=O)NC(=O)c2ccccc2)cc1 [Sulfabenzamide] .
Output: -0.72
